- target-entity: cyno serum albumin (cyno, UniProt A2V9Z4 25-608)
- Sequence (A2V9Z4 25-608 limits assumed): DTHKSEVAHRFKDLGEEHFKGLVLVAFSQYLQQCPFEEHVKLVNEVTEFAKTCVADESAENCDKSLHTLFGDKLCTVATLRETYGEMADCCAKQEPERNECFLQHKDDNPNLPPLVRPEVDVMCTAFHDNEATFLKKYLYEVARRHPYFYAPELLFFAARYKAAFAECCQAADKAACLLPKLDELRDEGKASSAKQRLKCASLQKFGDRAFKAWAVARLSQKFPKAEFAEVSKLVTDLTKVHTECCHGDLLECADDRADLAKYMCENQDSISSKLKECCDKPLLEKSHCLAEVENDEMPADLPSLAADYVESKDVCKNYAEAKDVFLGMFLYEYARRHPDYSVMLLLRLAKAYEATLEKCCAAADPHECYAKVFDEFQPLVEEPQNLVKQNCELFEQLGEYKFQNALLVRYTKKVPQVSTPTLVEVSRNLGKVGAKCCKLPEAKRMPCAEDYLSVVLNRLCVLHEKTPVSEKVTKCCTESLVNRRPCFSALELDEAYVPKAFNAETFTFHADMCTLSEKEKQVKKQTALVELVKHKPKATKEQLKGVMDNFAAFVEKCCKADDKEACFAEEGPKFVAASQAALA
- assay-name: ProteOn kinetic analysis
value-type: Kd (nM)

Please review the following examples before continuing.
[[record]]
binder = "SEQ ID NO 129 (VHH, also called T at position 30) VHH: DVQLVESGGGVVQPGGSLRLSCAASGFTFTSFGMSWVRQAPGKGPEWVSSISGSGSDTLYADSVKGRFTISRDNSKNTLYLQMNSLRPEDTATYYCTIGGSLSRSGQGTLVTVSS"
value_type = "Kd"
display_unit = "nM"
measured_result = 2.4

[[record]]
binder = "SEQ ID NO 127 (VHH, also called T at position 30) VHH: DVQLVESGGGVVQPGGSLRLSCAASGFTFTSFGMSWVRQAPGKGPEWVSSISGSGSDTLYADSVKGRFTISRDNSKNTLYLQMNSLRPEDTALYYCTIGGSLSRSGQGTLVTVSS"
value_type = "Kd"
display_unit = "nM"
measured_result = 2.1


[P] SEQ ID NO 145 (VHH, also called T at position 30) VHH: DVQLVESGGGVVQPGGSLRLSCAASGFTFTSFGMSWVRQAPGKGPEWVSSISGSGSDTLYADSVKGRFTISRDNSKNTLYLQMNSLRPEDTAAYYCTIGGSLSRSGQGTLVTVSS
[Q] SEQ ID NO 10 (VHH, also called R at position 30) VHH: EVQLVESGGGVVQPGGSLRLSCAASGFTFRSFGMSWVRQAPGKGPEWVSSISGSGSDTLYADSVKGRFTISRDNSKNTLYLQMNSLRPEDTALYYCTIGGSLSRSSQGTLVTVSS
Between P and Q , which one shows the smaller Kd number? Give the label under which the chosen entry appears.
Q
(Q: 0.89 nM, P: 2.3 nM)

Data provenance: patent US20220380445A1
